# target-or-test-system: hERG channel (Homo sapiens, UniProt Q12809)
# Sequence (Q12809 whole entry): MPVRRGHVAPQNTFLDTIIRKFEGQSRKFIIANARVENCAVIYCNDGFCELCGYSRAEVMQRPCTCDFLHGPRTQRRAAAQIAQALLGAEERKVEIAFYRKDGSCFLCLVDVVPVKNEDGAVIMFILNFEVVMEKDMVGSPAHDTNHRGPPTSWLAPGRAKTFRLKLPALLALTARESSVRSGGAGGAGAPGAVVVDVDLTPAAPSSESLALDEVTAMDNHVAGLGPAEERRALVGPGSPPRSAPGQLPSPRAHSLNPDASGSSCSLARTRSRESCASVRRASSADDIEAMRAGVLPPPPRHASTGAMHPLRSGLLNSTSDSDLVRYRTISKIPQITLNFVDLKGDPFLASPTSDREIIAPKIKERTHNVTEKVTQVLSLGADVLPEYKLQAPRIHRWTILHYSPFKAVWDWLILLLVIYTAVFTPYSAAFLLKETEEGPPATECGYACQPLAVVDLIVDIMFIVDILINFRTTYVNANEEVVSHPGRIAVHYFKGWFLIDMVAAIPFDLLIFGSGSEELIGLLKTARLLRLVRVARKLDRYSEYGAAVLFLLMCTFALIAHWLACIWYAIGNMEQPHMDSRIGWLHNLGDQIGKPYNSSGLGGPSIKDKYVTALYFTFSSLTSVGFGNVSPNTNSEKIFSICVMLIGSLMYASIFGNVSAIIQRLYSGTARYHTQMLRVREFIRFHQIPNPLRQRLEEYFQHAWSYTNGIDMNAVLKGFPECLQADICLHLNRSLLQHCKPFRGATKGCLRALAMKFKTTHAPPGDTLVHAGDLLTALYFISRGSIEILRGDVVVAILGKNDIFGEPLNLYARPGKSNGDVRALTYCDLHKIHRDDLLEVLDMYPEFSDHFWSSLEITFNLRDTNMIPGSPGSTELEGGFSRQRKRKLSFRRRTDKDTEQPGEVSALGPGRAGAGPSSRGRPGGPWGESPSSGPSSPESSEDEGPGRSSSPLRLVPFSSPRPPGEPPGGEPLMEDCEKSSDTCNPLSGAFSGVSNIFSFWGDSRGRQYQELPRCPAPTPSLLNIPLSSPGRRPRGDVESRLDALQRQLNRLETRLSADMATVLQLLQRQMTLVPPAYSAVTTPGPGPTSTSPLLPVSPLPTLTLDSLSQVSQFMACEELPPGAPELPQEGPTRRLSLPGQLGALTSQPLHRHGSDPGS
# assay-details: hERG channel blockade, whole-cell patch clamp in CHO cells expressing hERG
# particulars: CHO cells with stable hERG expression, room temperature, read-out: hERG Inh. IC50
pIC50: −log10 of the molar value.
# maps each entry to its pIC50

// worked examples, pIC50 included
| compound | target-or-test-system | reported |
| --- | --- | --- |
| CC(C)(C)CNCc1ccc2c(c1)CC[C@H](NC(=O)c1ccc(OC[C@@H]3CCCO3)cc1)C2 | hERG channel (Homo sapiens, UniProt Q12809) | < 4.52 |
| O=C(N[C@H]1CCc2cc(CNC3CCCCC3)ccc2C1)c1ccc(OC[C@@H]2CCCO2)cc1 | hERG channel (Homo sapiens, UniProt Q12809) | < 5.00 |
| O=C(N[C@H]1CCc2cc(CN3CC4CCC3C4)ccc2C1)c1ccc(OC[C@@H]2CCCO2)cc1 (stereo partly drawn) | hERG channel (Homo sapiens, UniProt Q12809) | < 4.52 |
| COC1CCN(Cc2ccc3c(c2)CC[C@H](N2CCc4cc(OC[C@@H]5CCCO5)ccc4C2=O)C3)CC1 | hERG channel (Homo sapiens, UniProt Q12809) | < 5.00 |

stdin: Given the compound O=C(N[C@H]1CCc2cc(CN3CCCC3)ccc2C1)c1ccc(OC[C@@H]2CCCO2)cc1 , what is its reported pIC50?
stdout: < 4.52

stdin: Given the compound CC1(C)CCN(Cc2ccc3c(c2)CC[C@H](NC(=O)c2ccc(OC[C@@H]4CCCO4)cc2)C3)CC1 , what is its reported pIC50?
stdout: < 5.00

----------
# target-or-test-system: human MCH receptor (Homo sapiens)
# Sequence (Q99705 whole entry): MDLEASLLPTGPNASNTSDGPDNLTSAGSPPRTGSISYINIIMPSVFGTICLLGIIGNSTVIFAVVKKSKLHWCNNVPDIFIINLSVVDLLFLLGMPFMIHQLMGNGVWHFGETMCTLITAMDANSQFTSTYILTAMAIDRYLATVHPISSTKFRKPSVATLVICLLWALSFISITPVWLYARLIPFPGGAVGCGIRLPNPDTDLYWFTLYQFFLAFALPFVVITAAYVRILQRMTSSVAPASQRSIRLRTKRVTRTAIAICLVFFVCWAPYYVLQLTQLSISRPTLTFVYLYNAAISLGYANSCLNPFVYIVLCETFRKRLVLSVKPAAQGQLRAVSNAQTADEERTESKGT
# assay-details: calcium mobilization assay (FLIPR); functional IC50 of MCH1R antagonists
# particulars: recombinant HEK293 cell line expressing human MCH receptor; calcium flux after addition of agonist MCH
Just so you know, the groups by IC50 go like this: low group (below 200 nM), middle group (200 nM to below 300 nM), high group (300 nM or more)

| compound | label-class |
| --- | --- |
| N#CC1CCN(Cc2ccc3c(c2)CC[C@H](NC(=O)c2ccc(OC[C@@H]4CCCO4)cc2)C3)CC1 [Example 3-84] | low group |
| O=C(N[C@@H]1CCc2cc(CN3CCCC3)ccc2C1)c1ccc(OC[C@@H]2CCCO2)cc1 [Example 3-2] | high group |
| O=C(N[C@H]1CCc2cc(CN3CCn4cnnc4C3)ccc2C1)c1ccc(OC[C@@H]2CCCO2)cc1 [Example 3-120] | high group |

stdin: Category of O=C(N[C@H]1CCc2cc(CN3CCCCCC3)ccc2C1)c1ccc(OCC2OCCO2)cc1 [Example 9-3] :
stdout: low group

stdin: Category of CS(=O)(=O)CCNCc1ccc2c(c1)CC[C@H](NC(=O)c1ccc(OC[C@@H]3CCCO3)cc1)C2 [Example 3-64] :
stdout: low group

stdin: Category of CC(C)(C)CNC(C)(C)c1ccc2c(c1)CC[C@H](NC(=O)c1ccc(OC[C@@H]3CCCO3)cc1)C2 [Example 8-1] :
stdout: middle group

stdin: Category of O=C(N[C@H]1CCc2cc(CNCCCN3CCCC3=O)ccc2C1)c1ccc(OC[C@@H]2CCCO2)cc1 [Example 3-33] :
stdout: middle group

stdin: Category of COC1CCN(Cc2ccc3c(c2)CC[C@H](n2ccc4cc(OC[C@@H]5CCCO5)ccc4c2=O)C3)CC1 [Example 13] :
stdout: high group

stdin: Category of CC1(CNCc2ccc3c(c2)CC[C@H](NC(=O)c2ccc(OC[C@@H]4CCCO4)cc2)C3)CCCC1 [Example 3-195] :
stdout: low group

stdin: Category of O=C(N[C@H]1CCc2cc(CN3CC4CCCC4C3)ccc2C1)c1ccc(OC[C@@H]2CCCO2)cc1 (some centres unmarked) [Example 3-14] :
stdout: low group

stdin: Category of Cc1cc(CNCc2ccc3c(c2)CC[C@H](NC(=O)c2ccc(OC[C@@H]4CCCO4)cc2)C3)no1 [Example 3-71] :
stdout: high group
